Molecular target: HiBit-WIZ fusion protein (Homo sapiens, UniProt O95785+Q96SW2)
Sequence (O95785 whole entry, the tested form may be a part): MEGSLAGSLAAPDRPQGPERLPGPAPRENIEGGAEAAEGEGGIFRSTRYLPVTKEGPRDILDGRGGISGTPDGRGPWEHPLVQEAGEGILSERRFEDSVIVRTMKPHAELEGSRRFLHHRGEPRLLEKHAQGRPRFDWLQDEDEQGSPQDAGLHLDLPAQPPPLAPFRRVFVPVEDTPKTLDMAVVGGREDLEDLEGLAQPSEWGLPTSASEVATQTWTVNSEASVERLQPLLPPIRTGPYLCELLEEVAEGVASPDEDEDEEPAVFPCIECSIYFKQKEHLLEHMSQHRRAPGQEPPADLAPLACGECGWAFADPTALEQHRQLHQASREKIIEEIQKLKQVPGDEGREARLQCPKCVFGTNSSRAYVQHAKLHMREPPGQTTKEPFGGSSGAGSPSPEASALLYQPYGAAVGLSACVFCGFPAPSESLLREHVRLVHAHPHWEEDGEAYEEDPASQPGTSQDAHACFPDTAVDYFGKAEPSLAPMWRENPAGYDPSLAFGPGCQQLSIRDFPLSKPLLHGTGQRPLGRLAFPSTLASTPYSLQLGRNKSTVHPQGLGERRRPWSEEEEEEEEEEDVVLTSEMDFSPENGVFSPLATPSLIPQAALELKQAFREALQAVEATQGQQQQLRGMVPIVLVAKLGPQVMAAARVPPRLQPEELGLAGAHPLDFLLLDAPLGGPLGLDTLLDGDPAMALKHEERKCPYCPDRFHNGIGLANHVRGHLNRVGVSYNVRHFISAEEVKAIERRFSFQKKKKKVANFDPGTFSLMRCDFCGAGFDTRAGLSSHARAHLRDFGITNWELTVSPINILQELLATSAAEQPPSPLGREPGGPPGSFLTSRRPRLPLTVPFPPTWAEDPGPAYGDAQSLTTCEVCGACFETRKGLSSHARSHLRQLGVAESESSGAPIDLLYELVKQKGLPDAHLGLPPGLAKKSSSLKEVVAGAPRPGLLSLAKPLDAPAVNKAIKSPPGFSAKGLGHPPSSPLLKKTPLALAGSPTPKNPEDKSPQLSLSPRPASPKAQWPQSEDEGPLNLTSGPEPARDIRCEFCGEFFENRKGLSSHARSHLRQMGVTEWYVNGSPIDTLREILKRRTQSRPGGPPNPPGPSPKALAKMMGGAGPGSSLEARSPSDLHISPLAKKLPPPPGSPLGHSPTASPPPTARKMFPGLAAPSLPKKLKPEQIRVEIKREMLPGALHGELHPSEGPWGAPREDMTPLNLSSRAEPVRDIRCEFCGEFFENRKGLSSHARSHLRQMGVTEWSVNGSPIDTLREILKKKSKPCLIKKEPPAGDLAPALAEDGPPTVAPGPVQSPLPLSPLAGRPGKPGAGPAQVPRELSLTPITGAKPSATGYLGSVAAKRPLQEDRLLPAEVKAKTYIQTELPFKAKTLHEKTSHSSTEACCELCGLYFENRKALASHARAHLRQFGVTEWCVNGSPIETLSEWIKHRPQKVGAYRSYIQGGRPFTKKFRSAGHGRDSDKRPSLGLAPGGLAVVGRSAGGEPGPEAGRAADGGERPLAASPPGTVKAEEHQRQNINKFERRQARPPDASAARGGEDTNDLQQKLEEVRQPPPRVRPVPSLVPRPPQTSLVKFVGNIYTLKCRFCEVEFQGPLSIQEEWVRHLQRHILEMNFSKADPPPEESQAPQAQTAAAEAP
Sequence (Q96SW2 whole entry, the tested form may be a part): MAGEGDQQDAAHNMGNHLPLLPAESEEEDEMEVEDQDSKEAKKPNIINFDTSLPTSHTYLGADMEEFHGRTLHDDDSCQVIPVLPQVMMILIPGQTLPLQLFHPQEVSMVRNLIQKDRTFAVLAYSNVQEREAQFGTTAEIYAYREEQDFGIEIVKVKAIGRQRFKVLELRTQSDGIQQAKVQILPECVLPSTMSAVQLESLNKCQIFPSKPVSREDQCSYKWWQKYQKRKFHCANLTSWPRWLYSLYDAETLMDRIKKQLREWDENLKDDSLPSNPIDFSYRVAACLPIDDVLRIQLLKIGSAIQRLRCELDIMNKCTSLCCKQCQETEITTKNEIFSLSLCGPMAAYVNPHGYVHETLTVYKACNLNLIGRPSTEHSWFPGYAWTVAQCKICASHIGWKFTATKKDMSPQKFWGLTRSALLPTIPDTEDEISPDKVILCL
Sequence (Q16531 whole entry partner, the tested form may be a part): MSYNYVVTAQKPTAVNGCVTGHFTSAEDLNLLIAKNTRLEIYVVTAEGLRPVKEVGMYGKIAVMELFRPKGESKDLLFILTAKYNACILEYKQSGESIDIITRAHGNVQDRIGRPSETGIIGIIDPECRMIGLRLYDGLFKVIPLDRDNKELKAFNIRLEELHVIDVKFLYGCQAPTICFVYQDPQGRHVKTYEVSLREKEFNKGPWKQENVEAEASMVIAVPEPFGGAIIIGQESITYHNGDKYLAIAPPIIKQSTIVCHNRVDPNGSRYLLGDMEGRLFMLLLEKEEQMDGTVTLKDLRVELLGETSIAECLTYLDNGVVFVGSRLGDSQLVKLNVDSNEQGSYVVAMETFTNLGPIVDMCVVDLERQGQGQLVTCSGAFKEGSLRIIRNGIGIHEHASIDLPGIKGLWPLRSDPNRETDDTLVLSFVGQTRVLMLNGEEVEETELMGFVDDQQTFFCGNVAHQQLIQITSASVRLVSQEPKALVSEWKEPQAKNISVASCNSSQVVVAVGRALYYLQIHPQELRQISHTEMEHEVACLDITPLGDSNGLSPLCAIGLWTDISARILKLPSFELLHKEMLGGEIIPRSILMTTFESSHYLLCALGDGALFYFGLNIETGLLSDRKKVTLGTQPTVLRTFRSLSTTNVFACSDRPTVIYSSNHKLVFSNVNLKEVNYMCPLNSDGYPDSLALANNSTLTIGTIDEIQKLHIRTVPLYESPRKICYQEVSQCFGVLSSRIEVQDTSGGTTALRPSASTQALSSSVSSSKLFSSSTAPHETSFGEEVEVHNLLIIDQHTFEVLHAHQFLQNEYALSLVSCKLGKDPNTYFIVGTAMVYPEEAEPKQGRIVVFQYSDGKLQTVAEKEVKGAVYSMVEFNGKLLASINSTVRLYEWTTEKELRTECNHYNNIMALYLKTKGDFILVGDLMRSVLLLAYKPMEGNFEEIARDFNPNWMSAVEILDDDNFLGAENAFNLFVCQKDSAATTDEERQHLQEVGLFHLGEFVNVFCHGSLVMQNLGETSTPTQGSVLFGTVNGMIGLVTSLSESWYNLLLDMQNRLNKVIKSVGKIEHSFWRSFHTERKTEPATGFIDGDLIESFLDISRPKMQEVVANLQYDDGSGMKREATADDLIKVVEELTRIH
Assay: Quantification of WIZ protein levels in HiBit tag fusion protein assay (WIZ HiBit assay in 293T cells)
Format: cell-based
Settings: HEK-293T, DMSO-normalized, curve-fitted percentage of WIZ-HiBit remaining at 25 uM; 293T cells; read-out: WIZ Amax
Each item that follows carries a reported remaining activity at up to 25 µM.
Field: numeric (%). Do not append units.

Give recorded remaining activity at up to 25 µM. CO[C@H]1C[C@@H](CN2CCCC[C@@H]2COc2ccc3c(c2)CN(C2CCC(=O)NC2=O)C3=O)C1 (stereo partly shown)
14.6

Give recorded remaining activity at up to 25 µM. Cn1nccc1-c1cccc(C(=O)N2CCCC[C@H]2COc2ccc3c(c2)CN(C2CCC(=O)NC2=O)C3=O)c1 (stereo partly shown) [Compound I-72gz]
86.3
